Where do the numbers come from? From patent US20080269202A1.

Overview of recorded melting point for various compounds

### Prompt I'd like to know its melting point. The compound in question is `COc1cc2c(cc1OC)C(c1ccc(NC(C)=O)cc1)=NN(c1nccs1)[C@H](C)C2`
### Response 156 to 158 °C

### Prompt One more compound: CCNC(=O)N1N=C(c2ccc([N+](=O)[O-])cc2)c2cc(OC)c(OC)cc2CC1C (centres unmarked) [79]
### Response 186 to 189 °C

### Prompt One more compound: COc1cc2c(cc1OC)C(c1ccc(N)c(Cl)c1)=NN(c1ncon1)C(C)C2 (racemic)
### Response 232 to 235 °C

### Prompt One more compound: `CNC(=O)N1N=C(c2ccc(N)cc2)c2cc(OC)c(OC)cc2C[C@@H]1C`
### Response 130 to 134 °C

### Prompt One more compound: `COc1cc2c(cc1OC)C(c1ccc(NC(C)=O)cc1)=NN(c1nc(C)c(C)s1)[C@H](C)C2`
### Response 238 to 239 °C

### Prompt One more compound: CCNC(=O)N1N=C(c2ccc(N)cc2)c2cc(OC)c(OC)cc2CC1C (racemic)
### Response 169 to 170 °C

### Prompt One more compound: COc1cc2c(cc1OC)C(c1ccc([N+](=O)[O-])cc1)=NN(c1noc(C)n1)C(C)C2 (centres unmarked)
### Response 197 to 199 °C

### Prompt One more compound: COc1cc2c(cc1OC)C(c1ccc(N)c(Cl)c1)=NN(c1nncs1)C(C)C2 (racemic)
### Response 125 to 130 °C

----------
target: adrenergic receptors; construct: other: rat cerebral cortical membranes, ligand [3H]yohimbine; experiment: in vitro binding profile to adrenergic receptors (Table 3); details: rat cerebral cortical membranes, ligand [3H]yohimbine; read-out: α2 binding
value.type: Ki

Use the examples below as a reference point.
• COc1cc2c(cc1OC)C(c1ccc(N)c(C)c1)=NN(c1nncs1)[C@H](C)C2 [Example 110] = > 10 µM
• CNC(=O)N1N=C(c2ccc(N)c(C)c2)c2cc(OC)c(OC)cc2C[C@H]1C [Example 123] = > 10 µM

### Prompt I'd like to know its Ki. The compound in question is COc1cc2c(cc1OC)C(c1ccc(N)c(C)c1)=NN(c1ncon1)[C@H](C)C2 [Example 104]
### Response > 10 µM

### Prompt One more compound: CNC(=O)N1N=C(c2ccc(N)cc2)c2cc(OC)c(OC)cc2C[C@H]1C [Example 121]
### Response > 10 µM

----------
Overview of recorded melting point for various compounds

- COc1cc2c(cc1OC)C(c1ccc(F)cc1)=NN(c1ncon1)C(C)C2 (stereo not drawn): 217 to 220 °C
- COc1cc2c(cc1OC)C(c1ccc(N)c(C)c1)=NN(c1nccs1)C(C)C2 (racemic): 109 to 113 °C
- CNC(=O)N1N=C(c2ccc(N)c(C)c2)c2cc(OC)c(OC)cc2CC1C (racemic): 119 to 122 °C
- COc1cc2c(cc1OC)C(c1ccc(N)cc1)=NN(C(=O)N1CCOCC1)C(C)C2 (racemic): 124 to 127 °C
- CNC(=O)N1N=C(c2cccc(N)c2)c2cc(OC)c(OC)cc2CC1C (racemic): 103 to 108 °C
- COc1cc2c(cc1OC)C(c1ccc(N)cc1)=NN(c1noc(C)n1)C(C)C2 (racemic): 233 to 236 °C
- COc1cc2c(cc1OC)C(c1ccc(N)cc1)=NN(c1nnco1)C(C)C2 (racemic): 100 to 105 °C
- COc1cc2c(cc1OC)C(c1ccc(N)cc1)=NN(c1ncn(C)n1)C(C)C2 (racemic): 203 to 205 °C
- COc1cc2c(cc1OC)C(c1ccc(N)cc1)=NN(c1nnc(C)o1)C(C)C2 (racemic): 209 to 211 °C
- COc1ccc(C2=NN(c3nncs3)C(C)Cc3cc(OC)c(OC)cc32)cc1OC (stereo not drawn): 173 to 174 °C

### Prompt I'd like to know its melting point. The compound in question is COc1ccc(C2=NN(c3ncon3)C(C)Cc3cc(OC)c(OC)cc32)cc1OC (stereo not drawn)
### Response 188 to 189 °C

### Prompt One more compound: `COc1cc2c(cc1OC)C(c1ccc(N)cc1)=NN(C1=NOCS1)[C@@H](C)C2`
### Response 134 to 135 °C

### Prompt One more compound: COc1cc2c(cc1OC)C(c1ccc(N)cc1)=NN(c1ncc(C)o1)C(C)C2 (racemic)
### Response 103 to 107 °C

### Prompt One more compound: COc1cc2c(cc1OC)C(c1ccc([N+](=O)[O-])c(C)c1)=NN(c1noc(C)n1)C(C)C2 (stereo not drawn)
### Response 206 to 208 °C

### Prompt One more compound: COc1cc2c(cc1OC)C(c1ccc([N+](=O)[O-])cc1)=NN(c1ncc(C)s1)C(C)C2 (stereo not drawn)
### Response 122 to 123 °C
